# SYSTEM: UniProtKB P0DTC2
MEASURED_ATTRIBUTE: pKd
Notebook: values listed as pKd are -log10 of the concentration (mol/L).

Inquiry: Field request: pKd | item: CC1=NN(c2ccc(C)c(C)c2)C(=O)/C1=N\Nc1cccc(-c2cccc(C(=O)O)c2)c1O
Reply text: 5.66

====

# SYSTEM: SARS-CoV-2 S1 + S2 ECD (Severe acute respiratory syndrome coronavirus 2, UniProt P0DTC2)
# ASSAY_REMARKS: biochemical
MEASURED_ATTRIBUTE: Kd (nM)
Just the number in nM, nothing appended.

Inquiry: Field request: Kd | item: CC1=NN(c2ccc(C)c(C)c2)C(=O)/C1=N\Nc1cccc(-c2cccc(C(=O)O)c2)c1O [Eltrombopag]
Reply text: 2010
